# Test summary: in vitro
# Measurement conditions: human, hela cells, % viability

Compound | viability at 28.5 h, 10 µM
Cc1ccc2nc(NC(=O)COc3ccccc3)sc2c1 | 91%
O=S(=O)(NCCOCc1ccccc1)c1ccc2c(c1)Cc1ccccc1-2 | 101%
FC(F)(F)c1cccc(Oc2nnnn2-c2ccccc2)c1 | 92.6%
Oc1nc(O)c2c(n1)NC1(CCC1)[C@@H]1C[C@@H](O)[C@@H](O)[C@H]21 | 91.4%
COc1cc(CNc2cc(-c3cccc4oc5ccccc5c34)ncn2)cc(OC)c1OC | 90.3%
Cc1nc(-c2ccccc2)sc1CNC(=O)C(F)(F)F | 88.8%
OCCNc1nc(Nc2ccc(O)cc2)nc2ccccc12 [CBK266606C] | 97.3%
CC1(C)CC(=O)c2sc(NC(=O)c3cccc(C(F)(F)F)c3)nc2C1 | 94.2%
COc1ccc(CCC(C)N2CCN(c3ccc(F)cc3)CC2)cc1 (centres unmarked) | 103%
O=C(CSCc1ccc(Br)cc1)Nc1cccnc1 | 104%
NC(=O)[C@@H]1C[C@@H](O)[C@H](O)[C@H]2[C@@H]1N(c1ccc(Cl)cc1)C(=S)N2Cc1cccs1 | 94.7%
O=C(O)c1ccc(NS(=O)(=O)c2cc(C(=O)O)ccc2Br)cc1 | 106%
CC1CCCC(C)N1CC(O)COc1ccc(/N=C/c2ccccc2)cc1 (centres unmarked) | 78.5%
O=C(CCc1c[nH]c2ccccc12)Nc1ccccc1C(=O)O | 108%
CCNCCNc1ccc([N+](=O)[O-])cc1 [CBK264179C] | 94.1%
O=C(O)c1nsnc1C(=O)O [CBK278311K] | 114%
Cc1cc(Nc2ccccc2C)c2cc(C(=O)O)ccc2n1 [CBK269458C] | 103%
c1ccc(CCN2CCN(c3nccnc3OCC3COc4ccccc4O3)CC2)cc1 (centres unmarked) [CBK082794T] | 99.4%
O=C(Nc1cccc2nsnc12)c1ccc(Cl)cc1 | 96.1%
O=C(c1csc2c1CCCC2)N1CCc2c(nc[nH]c2=O)C1 | 77.7%

----------
# Test summary: in vitro
# Design: Viability of infected HeLa host cells, resazurin conversion, bulk resorufin fluorescence relative to DMSO
# Measurement conditions: human, hela cells; bulk resorufin, mean of 3
Form field: viability at 28.5 h, 0.00125 µM (one value per entry).
Attribute measured: viability at 28.5 h, 0.00125 µM (%)

Molecule | Attribute measured | Observed measurement
CNC(=S)N1CCN(c2nsc3ccccc23)CC1 | viability at 28.5 h, 0.00125 µM | 100
CCOc1ccsc1C(=O)NC1Cc2ccccc2C1 [c16e] | viability at 28.5 h, 0.00125 µM | 86.9
CCC(c1ccc(F)cc1)N(C)C(=O)Cn1cc(C(=O)NC2CCCCC2)ccc1=O (stereo not shown) [c44e] | viability at 28.5 h, 0.00125 µM | 91.8
O=C(NCCc1c[nH]c2ccc(Cl)cc12)c1c(F)ccc(Cl)c1F [c42e] | viability at 28.5 h, 0.00125 µM | 101
Oc1c(CN2CCN(c3ccc(F)cc3)CC2)cc(Br)c2cccnc12 [c43e] | viability at 28.5 h, 0.00125 µM | 91.7
Cn1cc(C(c2ccc(OCC(=O)O)cc2)c2cn(C)c3ccccc23)c2ccccc21 [c48e] | viability at 28.5 h, 0.00125 µM | 89.6
FC(F)(F)c1ccc(N2CCNCC2)nc1OCc1ccc2c(c1)OCCO2 [c46e] | viability at 28.5 h, 0.00125 µM | 88.5
CN(C(=O)c1ccc(Cl)c(Cl)c1)[C@H]1CCC[C@H]1N1CCCC1 [c12e] | viability at 28.5 h, 0.00125 µM | 89.3
COc1cccc(CNC(C(=O)O)c2ccc3c(c2)OCO3)c1 (stereo not shown) [c40e] | viability at 28.5 h, 0.00125 µM | 98.4
O=C1Oc2nc3ccccc3cc2CN1C1CC1 | viability at 28.5 h, 0.00125 µM | 82.8

----------
Form field: viability at 28.5 h, 10 µM (one value per entry).
# Test summary: in vitro
# Measurement conditions: human, hela cells, % viability
Attribute measured: viability at 28.5 h, 10 µM (%)

Compound | Observed measurement
O=C(O)c1cccc(Nc2ncnc3ccccc23)c1 | 87.8
O=C(Nc1ccccc1[N+](=O)[O-])C(c1ccccc1)N1CCOCC1 (stereo not shown) | 94
COc1ccc2[nH]cc(CCNC(=O)c3ccc4nc[nH]c4c3)c2c1 | 94.5
CCN(CC)CC(c1ccccc1)C(O)c1ccc(OC)cc1 (stereo not shown) [CBK262074C] | 88.8
Cc1ccc(NC(=O)Cn2c(=O)cc(O)c3ccccc32)cc1 | 95.9
CCn1c(C)nn(-c2nc3c(Cl)cccc3s2)c1=O | 100
Cc1nn(C)cc1CN(CCCn1ccnc1)Cc1cccc(F)c1 | 92.3
COc1ccc(C(CC(=O)O)c2ccc3c(c2)OCCO3)cc1OC (stereo not shown) | 87
Cn1cc(CCNC(=O)N2CCN(Cc3ccsc3)CC2)cn1 | 88.6
Cc1cc(S(=O)(=O)NCCn2nc(C)c(C)c2C)ccc1F | 71.9

----------
Form field: viability at 28.5 h, 10 µM (one value per entry).
# Test summary: in vitro
# Measurement conditions: human, hela cells, % viability
Attribute measured: viability at 28.5 h, 10 µM (%)

Molecule | Attribute measured | Observed measurement
Cc1cc(C(=O)N2CCC(c3nccn3C)CC2)ccc1F | viability at 28.5 h, 10 µM | 89.7
O=C(O)C1CCN(C(=O)Nc2ccccc2Cl)CC1 | viability at 28.5 h, 10 µM | 106
COC(=O)CCc1sc(NC(=O)CSCC(=O)O)nc1-c1ccc(OC)cc1 | viability at 28.5 h, 10 µM | 93.6
CCOC(=O)c1c(NC(=O)CCN2CCCCC2)sc2c1CCCCC2 [CBK265319G] | viability at 28.5 h, 10 µM | 89.9
COc1nc(-c2ccccc2)ccc1-c1noc(COc2ccccc2)n1 | viability at 28.5 h, 10 µM | 91.8
Oc1cccc(Sc2nc3ccccc3nc2C(F)(F)F)c1 | viability at 28.5 h, 10 µM | 109
OCC(CO)(CO)NCc1ccc(-c2ccccc2)cc1 [CBK268742C] | viability at 28.5 h, 10 µM | 93.2
CCN(CC)C(=O)CN1CCC(Oc2nccnc2OC2CCCCC2)CC1 [CBK082866T] | viability at 28.5 h, 10 µM | 87
CCOC(=O)CN1CCC(Oc2cncc(OCC3COc4ccccc4O3)n2)C1 (centres unmarked) | viability at 28.5 h, 10 µM | 92.6
O=C1NCC2(C/C=C/CCOc3ccccc31)CCN(C(=O)c1ccncc1)CC2 | viability at 28.5 h, 10 µM | 105
O=C(Nc1cccc(-c2ccc3nncn3n2)c1)c1ccc(F)cc1 | viability at 28.5 h, 10 µM | 87.1
Cc1cccc(C2CCCN(C(=O)Nc3cnn(C)c3)C2)c1 (centres unmarked) | viability at 28.5 h, 10 µM | 102
CC(Oc1ccc(C(C)(C)C)cc1)C(=O)Nc1nnc[nH]1 (centres unmarked) | viability at 28.5 h, 10 µM | 94.8
NC(=O)CC1Nc2cccc3cccc(c23)NC1=O (centres unmarked) | viability at 28.5 h, 10 µM | 75
CC(=O)NCCC(=O)Nc1cc(C)ccc1C | viability at 28.5 h, 10 µM | 96.6
CC1=NN(c2nc(-c3cccc([N+](=O)[O-])c3)cs2)C(=O)C1/N=N/c1ccc(S(N)(=O)=O)cc1 (centres unmarked) | viability at 28.5 h, 10 µM | 94
CCOC(=O)Cc1nc2cc([N+](=O)[O-])ccc2oc1=O | viability at 28.5 h, 10 µM | 98
NCCNc1ccc([N+](=O)[O-])c(Sc2nc3ccccc3[nH]2)c1 | viability at 28.5 h, 10 µM | 106
Clc1cc(Nc2cccc(OCc3ccccc3)c2)n2nccc2n1 | viability at 28.5 h, 10 µM | 92.2
CN(C)CCCN1CCCC2(CCN(C(=O)c3cc(F)c(F)cc3F)C2)C1 (centres unmarked) | viability at 28.5 h, 10 µM | 96.5

----------
Form field: viability at 28.5 h, 10 µM (one value per entry).
# Test summary: in vitro
# Measurement conditions: human, hela cells, % viability

Compound | Reading unit | viability at 28.5 h, 10 µM
Cc1nc(N2CCN(Cc3ccc4c(c3)OCO4)CC2)c2c(C)c(C)sc2n1 | % | 100
COc1cc(NC(=O)c2ccc3c(c2)C(=O)N(Cc2ccccc2)C3=O)c(C(=O)O)cc1OC | % | 106
O=C(Nc1ccc(F)cc1)c1ccsc1NS(=O)(=O)Cc1ccccc1 | % | 82.8
COC(=O)c1cn(Cc2ccccc2)nn1 | % | 98.1
Cc1nc[nH]c1CN(Cc1cccc(F)c1)Cc1ccco1 | % | 75.7
c1ccc2c(c1)OCC(COc1cncc(OC3CCN(CC4CCCCC4)C3)n1)O2 (stereo not shown) | % | 109
COc1ccnc2c1c(=O)n(Cc1ccc(Cl)cc1)c(=O)n2C | % | 66.9
Cc1cc(=O)oc2cc(Sc3sccc3[N+](=O)[O-])ccc12 | % | 90.5
CC1CCCN(c2nc3cc(C(=O)O)sc3[nH]2)C1 (stereo not shown) | % | 88.8
COc1cc(OCc2ccccc2)ccc1CN1CCN(Cc2ccccc2)CC1 | % | 88.1
Cc1ccc(C(=O)Nc2cccc(-n3c(C)nc4ccccc4c3=O)c2)cc1 | % | 104
CC(Oc1ccc(Cl)cc1Cl)C(=O)Nc1ccc(OCC(=O)O)cc1 (stereo not shown) | % | 98.8
O=[N+]([O-])c1ccc(Sc2ccccc2C2=NCCCN2)nc1 [CBK006747C] | % | 101
COCC(=O)N1CCc2sccc2C1c1ccc(NC(=O)c2ccc(OC)cc2)cc1 (stereo not shown) | % | 103
CC(=O)c1ccc(-c2nc(NC(=O)c3cccc([N+](=O)[O-])c3)cnc2-c2ccc(F)c(Cl)c2)s1 | % | 97.2
COc1ccc(F)cc1-c1ccc(CC2(C(=O)NCc3cccs3)CCOCC2)cc1 | % | 112
COc1ccc(Cn2nc(NC(=O)OC(C)C)c3ccccc32)cc1 | % | 106
CC(C)Nc1ccc(C(=O)N2CCC(N3CCOCC3)CC2)cn1 | % | 105
CC(CC(=O)N1CCCC(c2cc3cccnc3[nH]2)C1)n1ccnc1 (stereo not shown) | % | 105
